- System: pY641-STAT6 in Peripheral Blood Mononuclear Cells (PBMC)
- PROTOCOL DETAILS: MSD-pSTAT-PBMC Assay (pSTAT6, IL-4 stimulated)
- Type: cell-based, Human
- TEST CONTEXT: Homo sapiens, compound 3 hrs, then 1 ng/mL IL-4 for 10 min
- Method: Cryopreserved Peripheral Blood Mononuclear Cells (PBMC) are from AllCells. Recombinant Human IL-4 and IL-6 are from Peprotech. […] Cryopreserved PBMCs were thawed out and allowed to recover overnight in IMDM+10% heat-inactivated FBS prior to plating 50,000 (STAT3) or 25,000 (STAT6) cells per well in 96-well U-bottom tissue culture plates. […] Assay plates were then washed and 150 μL of 1× Read Buffer-T (MSD) was added to each well prior to reading on an SQ120 MSD Plate Reader. […]
# IC50 listing for each entry below
PROPERTY MEASURED: IC50

MOLECULE	MEASUREMENT TARGET	DATA VALUE
CCCOC(=O)[C@H](C)NP(=O)(Cc1ccc2ccc(C(=O)N[C@H]3CN(C(C)=O)CC[C@H]4CC[C@@H](C(=O)N5CC(c6ccn(C)c(=O)c6)CC56CC6)N4C3=O)cc2c1)Oc1ccccc1 (stereo partly drawn) [Compound 408]	pY641-STAT6 in Peripheral Blood Mononuclear Cells (PBMC)	1000 to 3000 nM
CNC(=O)C[C@@H](Cc1ccc(OC)cc1)NC(=O)[C@@H]1CC[C@@H]2CCN(C(=O)c3n[nH]c4ccc(C)cc34)C[C@H](NC(=O)c3ccc4ccc(C(F)(F)P(=O)(O)O)cc4c3)C(=O)N21 [Compound 239]	pY641-STAT6 in Peripheral Blood Mononuclear Cells (PBMC)	100 to 1000 nM
CC(=O)N1CC[C@H]2CC[C@@H](C(=O)N(C)c3ccccc3)N2C(=O)[C@@H](NC(=O)c2cc3cc(C(F)(F)P(=O)(OCOC(=O)OC(C)C)OCOC(=O)OC(C)C)ccc3s2)C1 [Compound 318]	pY641-STAT6 in Peripheral Blood Mononuclear Cells (PBMC)	100 to 1000 nM

====

- MEASUREMENT TARGET: Recombinant STAT6 protein (STAT6(W123-T658)) (Homo sapiens)
- Construct: Recombinant STAT6 protein (STAT6(W123-T658))
- Sequence (P42226 123-658): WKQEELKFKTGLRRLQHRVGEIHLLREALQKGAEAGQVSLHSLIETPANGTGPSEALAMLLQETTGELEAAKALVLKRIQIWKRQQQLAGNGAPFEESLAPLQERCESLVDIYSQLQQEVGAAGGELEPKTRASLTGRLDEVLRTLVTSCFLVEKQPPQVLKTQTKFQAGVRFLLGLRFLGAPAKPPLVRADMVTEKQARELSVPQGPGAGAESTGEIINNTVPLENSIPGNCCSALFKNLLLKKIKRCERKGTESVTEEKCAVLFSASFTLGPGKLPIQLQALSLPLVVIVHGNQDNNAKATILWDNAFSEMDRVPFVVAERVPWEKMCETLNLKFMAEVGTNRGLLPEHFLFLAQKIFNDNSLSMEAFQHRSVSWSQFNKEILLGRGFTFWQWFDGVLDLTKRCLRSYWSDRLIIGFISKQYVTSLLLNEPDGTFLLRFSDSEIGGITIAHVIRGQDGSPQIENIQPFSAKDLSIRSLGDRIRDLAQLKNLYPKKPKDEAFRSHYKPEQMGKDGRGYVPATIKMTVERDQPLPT
- PROTOCOL DETAILS: STAT6 Fluorescence Polarization (FP) Assay
- TEST CONTEXT: STAT6(W123-T658) 250 nM, probe 5-FAM-ApYKPFQDLI-NH2 2 nM, 45-minute incubation
# IC50 listing for each entry below
PROPERTY MEASURED: IC50

COMPOUND	MEASUREMENT TARGET	DATA VALUE
CC(=O)N1CC(N(C)C(=O)[C@@H]2CC[C@@H]3CCN(C(C)=O)C[C@H](NC(=O)c4cc5cc(C(F)(F)P(=O)(O)O)ccc5[nH]4)C(=O)N32)C1	Recombinant STAT6 protein (STAT6(W123-T658)) (Homo sapiens)	0.3 to 3 µM
CC(=O)N1CC[C@H]2CC[C@@H](C(=O)N(C)c3ccccc3)N2C(=O)[C@@H](NC(=O)c2ccc3ccc(C(F)P(=O)(O)O)cc3c2)C1 (some centres unmarked)	Recombinant STAT6 protein (STAT6(W123-T658)) (Homo sapiens)	0.3 to 3 µM
O=C(N[C@H]1CCN(CC(F)F)C[C@H]2CC[C@@H](C(=O)N3CC(c4cc[nH]c(=O)c4)CC34CC4)N2C1=O)c1ccc2ccc(C(F)(F)P(=O)(O)O)cc2c1 (some centres unmarked)	Recombinant STAT6 protein (STAT6(W123-T658)) (Homo sapiens)	≤ 0.3 µM
CC(=O)N1CC[C@H]2CC[C@@H](C(=O)N(C)c3ccccc3)N2C(=O)[C@@H](NC(=O)c2ccc3ccc(C(F)(F)P(=O)(O)O)cc3c2)C1	Recombinant STAT6 protein (STAT6(W123-T658)) (Homo sapiens)	0.3 to 3 µM
CC(C)C(=O)N1CC[C@H]2CC[C@@H](C(=O)N(C)c3ccccc3)N2C(=O)[C@@H](NC(=O)c2cc3cc(C(F)(F)P(=O)(O)O)ccc3[nH]2)C1	Recombinant STAT6 protein (STAT6(W123-T658)) (Homo sapiens)	0.3 to 3 µM
